# experimental.protocol: Treadmill exercise / endurance test
# Type: in vivo, Swiss Albino mice
# setup.conditions: Day −28, oral once a day for 28 days
Marks after values point to notes of the source that are not given here.
recorded.metric: Time spent on shock zone during excercise [sec] Day −28

{"query.smiles": "NC(=O)NCCC[C@H](N)C(=O)O", "val": "36.63*** sec"}
{"query.smiles": "Cn1c(=O)[nH]c2ncn(C)c2c1=O", "val": "32.25*** sec"}
{"query.smiles": "CC(C)C[C@H](NC(=O)[C@@H](N)CC(C)C)C(=O)O", "val": "31.88*** sec"}
{"query.smiles": "N=C(N)NCCC[C@H](N)C(=O)O", "val": "35.13*** sec"}

Origin of the recorded values: patent US20240299484A1
